Test system: A673/TR/shEF
test description: cell viability (LOESS-normalised, relative to median of negative controls) (log2 ratio); higher = more viable cells (less compound effect), active = hit call of the paper (over 3 MAD below the median)
condition description: 2.5 µM; library screen: screen1; EWS-FLI1 expression: high (no doxycycline); treatment time: 72 h
Hit rate of the full screen: of about 3,200 compounds, about 300 (9.4%) showed activity. This excerpt belongs to a sample that is enriched for actives.
Mark one answer only. Choices: true (active), false (inactive)

q: Any idea what this test logged for COCCN1C(=O)/C(=C\c2ccc(-c3ccc(Br)cc3)o2)SC1=S ?
a: false

q: Another: CSc1nnc(-c2ccccc2)c(-c2ccccc2)n1
a: false

q: Another: O=c1cccc2c([C@H]3Oc4cc(O)cc(O)c4C[C@H]3O)cc(O)c(O)c2c1O
a: false

q: Another: Cc1cc(=O)c2c(o1)-c1c(cc(O)c(O)c1C(=O)O)OC2
a: false

q: Another: NC(N)=NCCNS(=O)(=O)c1cccc2cnccc12
a: true

q: Another: NCCNS(=O)(=O)c1cccc2cnccc12
a: true

q: Another: CC(=O)O[C@H]1C[C@@H](OC(C)=O)C(C)(C)C2CC(=O)[C@]3(C)C(CC[C@@]4(C)[C@H](C(=O)O)OC(=O)C5OC543)[C@]21C (some centres not stated)
a: false

q: Another: COc1cc(CN2CCN(Cc3ccco3)CC2)cc(OC)c1
a: false

q: Another: S=c1[nH]nc(COc2ccc(Cl)cc2Cl)n1-c1ccccc1
a: false

q: Another: COC(=O)c1c(C)c2c(c(C)c1OC)OC(=O)c1c(C)c(Cl)c(OC)c(Cl)c1O2
a: false

q: Another: O=S(=O)(NCCNC/C=C/c1ccc(Br)cc1)c1cccc2cnccc12
a: false

q: Another: COc1ccc(-c2coc3cc(OC)ccc3c2=O)cc1
a: false

q: Another: COC(=O)C[C@H]1C(C)(C)[C@@H](OC(C)=O)[C@@H]2CC3C4CC(=O)O[C@@H](c5ccoc5)[C@]4(C)CCC3[C@@]1(C)C2=O (some centres not stated)
a: false

q: Another: C[C@@H](Oc1ccccc1)C(=O)N[C@@H]1C(=O)N2[C@@H]1SC(C)(C)[C@@H]2C(=O)O
a: false

q: Another: CC(C(=O)O)N1C(=O)C(=Cc2cccnc2)SC1=S (configuration not stated)
a: false

q: Another: COc1ccc(CN2CCN(Cc3ccc(OC)c(OC)c3OC)CC2)c(OC)c1
a: false

q: Another: Cc1ccc(NC(=O)c2cccc(N(C)C)c2)cc1NC(=O)c1ccc(O)cc1
a: true

q: Another: C[C@H]1O[C@@H](O[C@H]2[C@@H](O)C[C@H](O[C@H]3[C@@H](O)C[C@H](O[C@H]4CC[C@@]5(C)[C@H](CC[C@@H]6[C@@H]5C[C@@H](O)[C@]5(C)[C@@H](C7=CC(=O)OC7)CC[C@]65O)C4)O[C@@H]3C)O[C@@H]2C)C[C@H](O)[C@@H]1O
a: true

q: Another: O=C1CC[C@]23/C=C/C(=O)NCCCCNCCCNC(=O)/C=C/c4ccc(c2c4)O[C@@H]3C1
a: false

q: Another: COc1ccc(CN2CCN(Cc3ccc(OC)c(OC)c3OC)CC2)cc1Br
a: false

q: Another: CC(C(=O)O)N1C(=O)C(=Cc2ccccn2)SC1=S (configuration not stated)
a: false

q: Another: CC1(C)C[C@@H]2C(=O)CC[C@@H]3O[C@]3(C)CC[C@H]21
a: false

q: Another: COC(=O)C[C@H]1C(C)(C)C(OC)=C2CC3=C4CC(=O)O[C@@H](c5ccoc5)[C@]4(C)CCC3[C@@]1(C)C2=O (some centres not stated)
a: false

q: Another: Cc1nc(-c2ccc(NC(=O)c3ccccc3)cc2)cs1
a: false

q: Another: COc1ccc(CN2CCN(Cc3ccc(C)cc3)CC2)c(OC)c1OC
a: false

q: Another: Cc1coc2ccccc2c1=O
a: false

q: Another: CC(=O)Oc1cc2c(c(C)c1OC(C)=O)CC=C1[C@@]2(C)CC[C@@]2(C)[C@@H]3C[C@](C)(C(=O)O)CC[C@]3(C)CC[C@]12C
a: false

###

Tested on: A673/TR/shEF
test description: cell viability (LOESS-normalised, relative to median of negative controls) (log2 ratio); higher = more viable cells (less compound effect), active = hit call of the paper (over 3 MAD below the median)
condition description: 2.5 µM; library screen: screen2; EWS-FLI1 expression: high (no doxycycline); treatment time: 72 h
In all, about 3,200 compounds went through this assay and about 300 (9.4%) showed activity. Only a selection was taken, and actives are over-represented in it overall.
Please assign FALSE whenever cell viability (log2) is at or above 0.1, and TRUE whenever it is below.

q: Hi there! Is cell viability (log2) for O=C([O-])[O-].[Ca+2] below 0.1, do you know?
a: FALSE

q: Another: Nc1ccn([C@@H]2O[C@H](CO)[C@@H](O)[C@@H]2O)c(=O)n1
a: TRUE

q: Another: c1ccc([C@H]2CN3CCSC3=N2)cc1
a: FALSE

q: Another: CNCCNS(=O)(=O)c1cccc2cnccc12
a: FALSE

q: Another: O=c1c(-c2ccc(O)cc2)coc2cc(O)ccc12
a: FALSE

q: Another: CC[N+](CC)(CC)CC(=O)Nc1c(C)cccc1C
a: TRUE

q: Another: C[C@H](NCCc1ccc(O)cc1)[C@H](O)c1ccc(O)cc1
a: TRUE

q: Another: N#CC(C#N)=C(N)/C(C#N)=C/c1ccc(O)cc1
a: FALSE

q: Another: Cn1cnc2c(NCc3ccccc3)nc(NCCO)nc21
a: FALSE

q: Another: CCCSc1ccc2nc(NC(=O)OC)[nH]c2c1
a: FALSE

q: Another: O=c1cc(N2CCOCC2)oc2c(-c3ccccc3)cccc12
a: FALSE

q: Another: Brc1ccc([C@H]2CN3CCSC3=N2)cc1
a: FALSE

q: Another: NC(=O)c1ncn([C@@H]2O[C@H](CO)[C@@H](O)[C@H]2O)n1
a: FALSE

q: Another: O=C1NC(=O)C(c2ccccc2)(c2ccccc2)N1
a: TRUE

q: Another: CN(C)CCC=C1c2ccccc2CCc2ccccc21
a: TRUE

q: Another: CCCCCCCCCCCCCCCCCC(=O)NCC(COP(=O)([O-])OCC[N+](C)(C)C)OC (centres undefined)
a: FALSE

q: Another: CC(C)NC[C@H](O)COc1cccc2ccccc12
a: FALSE

q: Another: C[C@]12CC[C@@H]3c4ccc(O)cc4CC[C@H]3[C@@H]1CC[C@@H]2O
a: TRUE

q: Another: C=CCc1ccccc1OCC(O)CNC(C)C (centres undefined)
a: TRUE

q: Another: Nc1ccn([C@H]2CC[C@@H](CO)O2)c(=O)n1
a: TRUE

q: Another: CCCCCCCCCCCCC(=O)N1CCCCC1CNC(=O)C(N)CCCCN (centres undefined)
a: FALSE

q: Another: C#CCN(C)CCCOc1ccc(Cl)cc1Cl
a: FALSE

q: Another: CN(C)CC/C=C1\c2ccccc2COc2ccccc21
a: FALSE

q: Another: CC1CN(S(=O)(=O)c2cccc3cnccc23)CCN1 (centres undefined)
a: FALSE

q: Another: CN1[C@@H]2CC[C@@H]1CC(OC(c1ccccc1)c1ccccc1)C2 (some centres undefined)
a: FALSE

q: Another: CCCN(CCC)CCc1cccc2c1CC(=O)N2
a: TRUE

q: Another: NC(=O)c1ncn([C@@H]2O[C@H](CO)[C@@H](O)[C@H]2O)c1O
a: TRUE

q: Another: CN[C@H](Cc1ccccc1)C(=O)N1CCC[C@H]1C(=O)N[C@@H](Cc1c[nH]c2ccccc12)C(=O)C(F)(F)C(F)(F)F
a: TRUE

q: Another: CCCCCCCCCCCCCCCC(=O)NCC(COP(=O)([O-])OCC[N+](C)(C)C)OCC (centres undefined)
a: TRUE

q: Another: CCCCN1CCC(COC(=O)c2cc(Cl)c(N)c3c2OCCO3)CC1
a: FALSE

q: Another: COC(=O)Nc1nc2ccc(C(=O)c3ccccc3)cc2[nH]1
a: TRUE

q: Another: Cc1ccc2c(c1)C(N1CCN(C)CC1)=Nc1cccnc1N2
a: TRUE

q: Another: COc1ccc(CCNCC(O)c2ccc(O)cc2)cc1OC (centres undefined)
a: TRUE

q: Another: COc1cc2c(cc1O)CC[C@@H]1[C@@H]2CC[C@]2(C)[C@@H](O)CC[C@@H]12
a: TRUE

q: Another: NC(N)=NCCSSCCN=C(N)N
a: TRUE

q: Another: CC(C(=O)O)c1cccc(C(=O)c2ccccc2)c1 (centres undefined)
a: FALSE

q: Another: CN(C)CCC=C1c2ccccc2C=Cc2ccccc21
a: FALSE

q: Another: N#CC(C#N)=C(N)/C(C#N)=C/c1cc(O)c(O)c(O)c1
a: FALSE

Where these numbers come from: the supplement of paper PMC6089552
